Here the recorded EC50 is given for each entry.
Molecular target: T1, monkey GPC3 on HEK293T-monkey GPC3 cells (monkey)
T1 construct: whole, on cells
Experiment: FACS on HEK293T-monkey GPC3 cells;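 note: flow cytometry binding of test antibodies to the cells, read as mean fluorescence intensity, with half-maximal concentration taken from fitted curves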
The reply should be a number in pM, with the unit left off.

{"Binder": "F1.118.4 (antibody, human IgG1, kappa, V domains shown, Human-murine chimeric antibody) VH: QVQLQQSGAELAKPGASVKLSCKASGYSFTSYWIHWVKQRPGQGLEWIGYINPSSGYTKYNQKFKDKATLTADKSSSTAYMQLSSLTYEDSAVYYCARFGSSSFYFDYWGQGTTLTVSS VL: DIVLTQSPASLAVSLGQRATISCRASQSVSSSSYSYMHWYQQKPGQPPKLLIKYASNLDSGVPARFSGSGSGTDFTLNIHPVEEEDTATYYCQHSWEIPAFGGGTKLEIKR", "EC50 [pM]": 320}
{"Binder": "F1.57.21 (antibody, human IgG1, kappa, V domains shown, Human-murine chimeric antibody) VH: QVQLQQSGAELARPGASVKLSCKASGYTFTSYGISWVKQITGQGLEWIGEIYPRSESTYYNEKFKGKATLTADKSSSTAYMELRSLTSEDSAVYFCARDYGNIYSFAYWGQGTLVTVSA VL: DIQMTQSPASLSASVGETVTITCRTSENIYSYLAWYQQKQGKSPQLLVYNAKTLAEGVPSRFSGSGSGTQFSLKINSLQPEDFGSYYCQHHYGTPLTFGAGTKLELKR", "EC50 [pM]": 770}
{"Binder": "F1.21.8 (antibody, human IgG1, kappa, V domains shown, Human-murine chimeric antibody) VH: EVQLQQSGPELVKPGASVKISCKTSGFLFTGHYMHWVKSSHGNILDWIGYIYPYNAISFYNQKFKGKATLTVDKSSNTAYMELRSLTSEDSAVYYCARGDYGNYVTAYWGQGTLVTVSA VL: DVLMTQTPLSLPVSLGDQASISCRSSQSIVHSSGNTYLEWYLQKPGQSPKLLIYKVSNRFSGVPDRFSGSGSGTDFTLKISRVEAEDLGVYYCFQGSHLPWTFGGGTKLDIKR", "EC50 [pM]": 290}

*Q* What value of EC50 has been recorded for this entry: F1.145.22 (antibody, human IgG1, kappa, V domains shown, Human-murine chimeric antibody) VH: QVQLQQSGTDLARPGASVKLSCKASGYTFTSFGISWVKQRTGQGLEWIGEIYPRSGSPYYNEKFTGKATLTADKSSSTAYMELRSLTSEDSAVYFCAKDFGSSYVFDYWGQGTALTVSS VL: DIQMTQSPASLSASVGETVTITCRASENIYSYLTWYQQKQGKSPQLLVYNAKTLAEGVPSRFSGSGSGTQFSLKINSLQPEDFGTYYCQHHYGTPPTFGTGTKLDLKR
*A* 690

*Q* Input F4.18.4 (antibody, human IgG1, kappa, V domains shown, Human-murine chimeric antibody) VH: QVQLHQSGAEMAKPGASVNLSCKTSGFTFTDYGISWVKQRTRQGLEWIGDIYPRHINIYYNEKFKDKATLTADRSSSTAYMELRSMTSEDSAVYFCARRGTTGRGALDYWGQGTSLTVSS VL: DILLTQSPAILSVSPGERVSFSCRASQSIGTSIHWYQQRTNGSPRLLIKYAFESISGIPSRFGGSGSRTDFTLTINSVESEDIADYYCQQTYNWPYTFGGGTKLEIKR
*A* 890

*Q* Now this one: F1.111.11 (antibody, human IgG1, kappa, V domains shown, Human-murine chimeric antibody) VH: EVQLQQSGPELVKPGASVKISCKASGYTFTDYYMNWVKQSHGKSLEWIGDIYPNNGDTTYNQRFKGKATLTVDKSSSTAYMELRSLASEDSAVYYCACPYNNPFGYWGQGTLVTVSA VL: DVVMTQTPLSLPVSLGDQASISCRSSQSLVHSNGNTYLHWYLQKPGQSPKLLIYKVSNRFSGVPDRFSGSGSGTDFTLKISRVEAEDLGVYFCSQSTHVPWTFGGGTKLEIKR
*A* 420

*Q* Same question, F1.136.7 (antibody, human IgG1, kappa, V domains shown, Human-murine chimeric antibody) VH: EVQLQQSGPVMVKPGPSVKISCQTSGFTFTDYYIHWVKQSHGKSLEWIGLVFPYDGGTNYNQKFKDKATLTLDTSSSTAYMELNSLTSEDSAVYYCARAGGFSYALNYWGQGTSVTVSS VL: DIQMTQSPSSLSASLGGKVTITCKASQDINNYIAWYQHKPGKGPRLLIHFTSTLQPGIPSRFSGSGSGRDYSFSISNLEPEDIATYYCLQYDNLLLTFGAGTKLELKR this time
*A* 1940

*Q* Param item: F1.92.17 (antibody, human IgG1, kappa, V domains shown, Human-murine chimeric antibody) VH: EVQLQQSGPELVKPGASVKMSCKASGYTFTDYNMHWVRQSHGKSLEWIGYINPNNGDTIYNQNFKGKATLTVNKSSSTAYMELRSLTSEDSAVYYCSRTITYYYSMDYWGPGTSVTVSS VL: QIVLTQSPALMSASPGEKVTMTCSASSSVSYMYWYQQKPRSSPKPWIYLTSNLASGVPARFSGSGSGTSYSLTISSMEAEDAATYYCQQWSSNPLTFGAGTKLELKR
*A* 2260

*Q* Subsequent entry: F4.13.7 (antibody, human IgG1, kappa, V domains shown, Human-murine chimeric antibody) VH: QVQLQQPGAELVKPGASVKLSCKASGYTFTNNWVHWVKQRPGQGLEWTGMIHPDSGSTIYNEKFQSKATLTVDKSSSTAYMQLSSLTSEDSAVYYCARGYYDSSSYYAMDYWGQGTSVTVSS VL: NIQMTQTTSSLSASLGDRVTISCSASQGIFNYLNWYQQKPDGTVKLLIYYTSSLHSGVPSRFSGSGSGTDYSLTISNLEPEDIATYYCQQYSKLPWTFGGGTKLEIKR
*A* 1100

*Q* Moving on to F3.54.12 (antibody, human IgG1, kappa, V domains shown, Human-murine chimeric antibody) VH: QVQLQQSGAELVRPGASVKLSCKASGYTFTDYEMHWVKQTPVHGLEWIGAIDPETGNTAYIQKFKGKATLTTDKSSSTAYMELRSLTSEDSAVYYCTRFYSYSHWGQGTTLTVSS VL: DVVMTQTPLSLPVSLGDQASISCRSSQSLVHSNGNTYLHWYLQKPGQSPKLLIYKVSNRFSGVPDRFSGSSSGTDFTLKISRVEAEDLGVYFCSQNTHVPPTFGGGTKLEIKR
*A* 720
